biological target: AsDcpS (Ascaris suum, UniProt D3K0N9)
Sequence (D3K0N9 whole entry): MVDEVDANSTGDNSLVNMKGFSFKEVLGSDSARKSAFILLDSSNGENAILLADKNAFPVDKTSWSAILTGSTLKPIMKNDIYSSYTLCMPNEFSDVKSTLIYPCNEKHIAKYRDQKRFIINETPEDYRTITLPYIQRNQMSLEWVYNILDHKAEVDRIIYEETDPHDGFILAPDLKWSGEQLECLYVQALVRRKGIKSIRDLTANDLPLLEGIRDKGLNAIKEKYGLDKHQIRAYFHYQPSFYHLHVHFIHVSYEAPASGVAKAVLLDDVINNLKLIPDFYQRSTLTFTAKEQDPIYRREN
value.kind: Kd (nM)
Give the quantity in nM, number only.

Record C[n+]1cn([C@@H]2O[C@H](COP(=O)(O)OP(=O)([O-])O)[C@@H](O)[C@H]2O)c2nc(N)[nH]c(=O)c21 [m^7GDP, 7-methylguanosine diphosphate] . Reported Kd: 5.4

---

Target sequence: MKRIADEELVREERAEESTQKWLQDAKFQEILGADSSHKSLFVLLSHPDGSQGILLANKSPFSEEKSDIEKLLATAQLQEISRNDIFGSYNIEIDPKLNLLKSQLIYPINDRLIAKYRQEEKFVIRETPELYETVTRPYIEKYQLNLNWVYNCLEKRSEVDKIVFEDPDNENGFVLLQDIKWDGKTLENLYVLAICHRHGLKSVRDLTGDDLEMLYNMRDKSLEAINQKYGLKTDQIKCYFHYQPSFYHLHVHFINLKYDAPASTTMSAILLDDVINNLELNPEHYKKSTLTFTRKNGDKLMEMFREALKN
value.kind: Ki (µM)
Give the quantity in µM, number only.

Record C[n+]1cn([C@@H]2O[C@H](COP(=O)(O)OP(=O)([O-])O)[C@@H](O)[C@H]2O)c2nc(N)[nH]c(=O)c21 [m^7GDP, 7-methylguanosine diphosphate] . Reported Ki: 0.156
